# System: MV4-11
# method_description: Antiproliferative activity against human MV4-11 cells harboring FLT3-ITD mutant assessed as inhibition of cell proliferation incubated for 72 hrs by WST-8 assay
# Format: functional, cell-based
# measurement_conditions: MV4-11, 72 h
parameter_measured: IC50 (nM)
Only the number, expressed in nM, is required.

# IC50 (molecule: CCc1nc(C(N)=O)c(Nc2ccc(N3CCC(N4CCN(CC5CCN(C(=O)CCOCCOCCNc6cccc7c6C(=O)N(C6CCC(=O)NC6=O)C7=O)CC5)CC4)CC3)c(OC)c2)nc1NC1CCOCC1 (stereo unspecified) ) is 0.9

Reference for the values: ChEMBL document CHEMBL5104220
